Assayed Target: mouse RORγ (Mus musculus, UniProt P51450)
Construct: mouse, NM_011281.2 and from Ile251 to Lys516; expressed in transfected cells; host or cells: CHO cells (transient co-transfection with pG5-Luc reporter)
Assay Comment: Luciferase reporter gene assay of inhibitory effect against RORγ transcriptional activity (GAL4-mRORγ plasmid in CHO cells)
Format: cell-based
Conditions: read-out: LUC EC50 (μM) mRORg
Readout Name: EC50

{"Molecule": "CC(=O)N1C[C@H](C(=O)Nc2ccc(C)cc2C)[C@@H](c2nnc(CCC(C)(C)C)n2C2CC2)C1 (racemic)", "Assayed Target": "mouse RORγ (Mus musculus, UniProt P51450)", "EC50": "< 3 µM"}

get_value(item= Cc1c(Cl)cccc1NC(=O)CCc1nnc(CCCC(C)(C)C(=O)O)n1C1CC1 , readout=EC50) returns > 3 µM

get_value(item= Cc1ccc(CNC(=O)CCc2nnc(CCC(C)C)n2C2CC2)c(C)c1 , readout=EC50) returns < 3 µM

get_value(item= Cc1ccc(C)c(NC(=O)CCc2nnc(CCC(C)C)n2C2CC2)c1 , readout=EC50) returns > 3 µM

---

Recorded EC50 by entry
Assayed Target: human RORγ (Homo sapiens, UniProt P51449)
Construct: human, NM_005060.3 and from Ser253 to Lys518; expressed in transfected cells; host or cells: CHO cells (transient co-transfection with pG5-Luc reporter)
Sequence (P51449 253-518): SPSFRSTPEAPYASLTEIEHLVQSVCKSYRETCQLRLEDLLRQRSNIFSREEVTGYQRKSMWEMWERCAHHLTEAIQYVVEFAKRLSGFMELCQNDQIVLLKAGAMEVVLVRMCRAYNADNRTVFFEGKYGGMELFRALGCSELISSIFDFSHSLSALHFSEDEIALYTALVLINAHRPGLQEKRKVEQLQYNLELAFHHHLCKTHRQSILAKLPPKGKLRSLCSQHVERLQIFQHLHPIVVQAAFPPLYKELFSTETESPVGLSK
Assay Comment: Luciferase reporter gene assay of inhibitory effect against RORγ transcriptional activity (GAL4-hRORγ plasmid in CHO cells)
Assay type: cell-based
Conditions: read-out: LUC EC50 (μM) hRORg

Before answering, review these 3 worked examples.
{"Compound": "Cc1c(O)cccc1CNC(=O)CCc1nnc(CCC(C)C)n1C1CC1", "Assayed Target": "human RORγ (Homo sapiens, UniProt P51449)", "EC50": "> 3 µM"}
{"Compound": "Cc1ccc(NC(=O)CCc2nnc(COC(C)(C)C)n2C2CC2)c(C)c1", "Assayed Target": "human RORγ (Homo sapiens, UniProt P51449)", "EC50": "> 3 µM"}
{"Compound": "Cc1cc(Cl)ccc1NC(=O)CCc1nnc(CCC(C)C)n1C1CC1", "Assayed Target": "human RORγ (Homo sapiens, UniProt P51449)", "EC50": "> 3 µM"}

get_value(item= CC(C)n1c(CCC(=O)Nc2cccc3ccccc23)nnc1C1Cc2ccccc2C1 , readout=EC50) returns > 3 µM

get_value(item= Cc1ccc(NC(=O)[C@H]2CN(C)CC[C@@H]2c2nnc(CCCC(C)(C)C)n2C2CC2)c(C)c1 (racemic) , readout=EC50) returns < 3 µM

get_value(item= Cc1ccc(NCc2nnc(CCC(=O)Nc3cccc(Cl)c3C)n2C2CC2)cc1C , readout=EC50) returns < 3 µM

get_value(item= Cc1c(Cl)cccc1NC(=O)CCc1nnc(CCC2CCC(F)(F)CC2)n1C1CC1 , readout=EC50) returns < 3 µM

get_value(item= COC1(CC(C)C)CC(c2nnc([C@H]3CN(C(C)=O)C[C@@H]3C(=O)Nc3ccc(C)cc3C)n2C2CC2)C1 (single isomer, unassigned) [Example F-482] , readout=EC50) returns < 3 µM

---

Assayed Target: mouse RORγ (Mus musculus, UniProt P51450)
Construct: mouse, NM_011281.2 and from Ile251 to Lys516; expressed in transfected cells; host or cells: CHO cells (transient co-transfection with pG5-Luc reporter)
Sequence (P51450 251-516): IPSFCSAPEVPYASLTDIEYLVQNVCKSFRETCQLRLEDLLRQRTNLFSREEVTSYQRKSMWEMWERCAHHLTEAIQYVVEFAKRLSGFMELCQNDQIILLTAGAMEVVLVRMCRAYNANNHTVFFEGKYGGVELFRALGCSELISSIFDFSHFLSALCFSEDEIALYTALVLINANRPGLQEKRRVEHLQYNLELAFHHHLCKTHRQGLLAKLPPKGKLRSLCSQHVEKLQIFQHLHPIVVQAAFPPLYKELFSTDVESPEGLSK
Assay Comment: Luciferase reporter gene assay of inhibitory effect against RORγ transcriptional activity (GAL4-mRORγ plasmid in CHO cells)
Format: cell-based
Conditions: read-out: LUC EC50 (μM) mRORg
Readout Name: EC50

{"Compound": "CC(C)(C)Cc1cc(-c2onc([C@@H](CCC(=O)O)CC(=O)Nc3ccc(Cl)cc3Cl)c2C2CC2)no1 [Example E-58]", "EC50": "< 3 µM"}
{"Compound": "CC(=O)N1C[C@H](C(=O)Nc2ccc(F)cc2C)[C@@H](c2nnc(CCCC(C)(C)C)n2C2CC2)C1 (racemic) [Example F-333]", "EC50": "< 3 µM"}
{"Compound": "CC(=O)N1C[C@H](C(=O)Nc2ccc(C)cc2C)[C@@H](c2nnc(C(O)CCC(C)(C)C)n2C2CC2)C1 (single isomer, unassigned) [Example F-348]", "EC50": "> 3 µM"}

get_value(item= Cc1ccc(NC(=O)C[C@H](CCC(=O)O)c2noc(-c3nnc(CC(C)C)s3)c2C2CC2)c(Cl)c1 [Example E-14] , readout=EC50) returns < 3 µM

get_value(item= Cc1ccc(NC(=O)C[C@H](CCC(=O)O)c2noc(-c3cc(CC(C)(C)C)on3)c2C2CC2)c(Cl)c1 [Example E-06] , readout=EC50) returns < 3 µM

get_value(item= CCn1c(C2Cc3ccccc3C2)nnc1[C@H]1C[C@@H]1C(=O)Nc1cccc2ccccc12 (racemic) [Example F-26] , readout=EC50) returns > 3 µM

---

Assayed Target: human RORγ (Homo sapiens)
Construct: human, NM_005060.3 and from Ser253 to Lys518; expressed in transfected cells; host or cells: CHO cells (transient co-transfection with pG5-Luc reporter)
Sequence (P51449 253-518): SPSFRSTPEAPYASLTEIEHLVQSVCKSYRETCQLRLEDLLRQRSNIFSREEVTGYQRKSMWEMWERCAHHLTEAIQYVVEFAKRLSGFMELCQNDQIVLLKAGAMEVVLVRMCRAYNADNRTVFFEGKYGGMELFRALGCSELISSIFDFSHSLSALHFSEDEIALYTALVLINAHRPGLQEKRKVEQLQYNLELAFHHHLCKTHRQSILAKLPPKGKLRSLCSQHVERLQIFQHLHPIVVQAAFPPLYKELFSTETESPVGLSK
Assay Comment: Luciferase reporter gene assay of inhibitory effect against RORγ transcriptional activity (GAL4-hRORγ plasmid in CHO cells)
Assay type: cell-based
Conditions: read-out: LUC EC50 (μM) hRORg
Readout Name: EC50

get_value(item= CCn1c(CCC(=O)Nc2ccc(C)cc2C)nnc1CCC1CCCC1 [Example F-48] , readout=EC50) returns > 3 µM

get_value(item= Cc1ccc(NC(=O)C[C@H](CCC(=O)O)c2noc(-c3cc(CCC(F)(F)F)on3)c2C2CC2)c(Cl)c1 [Example E-50] , readout=EC50) returns < 3 µM

get_value(item= CC(C)CCc1nnc(CCC(=O)Nc2nnc3ccccn23)n1C1CC1 [Example F-139] , readout=EC50) returns > 3 µM

get_value(item= CCn1c(CCC(=O)Nc2cccc(Cl)c2C)nnc1C1Cc2ccccc2C1 [Example F-3] , readout=EC50) returns > 3 µM

get_value(item= CC(C)CCc1nnc(CCC(=O)Nc2cccc3ccccc23)n1C1CC1 [Example F-81] , readout=EC50) returns < 3 µM

get_value(item= Cc1ccc(NC(=O)CCc2nnc([C@H]3C[C@@H](CC4CCCC4)C3)n2C2CC2)c(C)c1 [Example F-424] , readout=EC50) returns < 3 µM

get_value(item= CC1(C(F)(F)c2cc(-c3onc([C@@H](CCC(=O)O)CC(=O)Nc4ccc(Cl)cc4F)c3C3CC3)no2)CC1 [Example E-67] , readout=EC50) returns < 3 µM

get_value(item= CCC(C)CCc1nnc(CCC(=O)Nc2cccc(Cl)c2C)n1C1CC1 (racemic) [Example F-235] , readout=EC50) returns < 3 µM

---

Assayed Target: human RORγ (Homo sapiens, UniProt P51449)
Construct: human, NM_005060.3 and from Ser253 to Lys518; expressed in transfected cells; host or cells: CHO cells (transient co-transfection with pG5-Luc reporter)
Assay Comment: Luciferase reporter gene assay of inhibitory effect against RORγ transcriptional activity (GAL4-hRORγ plasmid in CHO cells)
Assay type: cell-based
Conditions: read-out: LUC EC50 hRORg
pEC50: −log10 of the molar value.
Readout Name: pEC50

Before answering, review these 3 worked examples.
{"Compound": "Cc1ccc(NC(=O)[C@@H](CCC(=O)O)Cc2noc([C@H]3C[C@@H](CC(C)(C)C)C3)c2C2CC2)c(C)c1 [Example F-685]", "pEC50": "> 5.52"}
{"Compound": "CCOC(=O)/C=C/c1c(CCC(=O)Nc2ccc(C)cc2C)noc1[C@H]1C[C@@H](CC(C)C)C1 [Example F-645]", "pEC50": "< 5.52"}
{"Compound": "Cc1cc(NC(=O)C[C@H](CC(=O)O)c2noc([C@H]3C[C@@H](CC(C)C)C3)c2C2CC2)no1 [Example F-670]", "pEC50": "< 5.52"}

get_value(item= Cc1ccc(NC(=O)C[C@@H](CCO)c2noc([C@H]3C[C@@H](CC(C)C)C3)c2C2CC2)c(C)c1 [Example F-579] , readout=pEC50) returns > 5.52

get_value(item= Cc1ccc(NC(=O)C[C@H](CCC(=O)O)c2noc([C@H]3C[C@@H](CC(C)(C)C)C3)c2C2CC2)nc1C [Example F-680] , readout=pEC50) returns > 5.52

get_value(item= Cc1ccc(NC(=O)C[C@@H](c2nnc([C@H]3C[C@@H](CC(C)C)C3)n2C2CC2)N(C)C)c(C)c1 [Example F-516] , readout=pEC50) returns > 5.52

get_value(item= CC(C)(C)C[C@H]1C[C@@H](c2onc([C@@H](CCC(=O)O)CC(=O)NS(=O)(=O)c3ccccc3)c2C2CC2)C1 [Example F-723] , readout=pEC50) returns < 5.52
